target: NOV1401; assay: cell-based or functional assay; also: test concentration or dose not given here
Sequence (VL, as listed by the source): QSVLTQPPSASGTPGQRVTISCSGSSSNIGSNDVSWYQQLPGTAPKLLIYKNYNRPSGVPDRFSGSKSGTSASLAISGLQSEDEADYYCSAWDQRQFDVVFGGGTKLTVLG
# aPTT percentage reversal, NOV1401/anti NOV1401 ratio 1/1 (n/n) listing for each entry below
Write it as a number; the unit % goes unstated.

// worked examples, aPTT percentage reversal, NOV1401/anti NOV1401 ratio 1/1 (n/n) included
{"columns": ["binder", "result units", "measured"],
 "data": [
  ["IDT4 (Fab, V domains shown, Fab; also called anti-NOV1401 Fab IDT4) VH: QVQLVESGGGLVKPGGSLRLSCAASGFTFSSAAVHWVRQAPGKGLEWVGRIKSKASGGTTDYAAPVKGRFTISRDDSKNTLYLQMNSLKTEDTAVYYCARDSPSISSYSIPYFSGMDVWGQGTLVTVSS VL: DIQMTQSPSSLSASVGDRVTITCRASQGIRAWLNWYQQKPGKAPKLLIYAASSLQSGVPSRFSGSGSGTDFTLTISSLQPEDFATYYCHQYITHPPTFGQGTKVEIKR", "%", 10],
  ["IDT6 (Fab, V domains shown, Fab with a lambda light chain; also called anti-NOV1401 Fab IDT6) VH: QVQLVQSGAEVKKPGESLKISCKGSGYSFTNYWIGWVRQMPGKGLEWMGIIFPGVSYTKYSPSFQGQVTISADKSISTAYLQWSSLKASDTAMYYCARGSDQTLRGSRAMDYWGQGTLVTVSS VL: QSALTQPASVSGSPGQSITISCTGTSSDVGISNYVSWYQQHPGKAPKLMIYEVSNRPSGVSNRFSGSKSGNTASLTISGLQAEDEADYYCQSYTSLNYVFGGGTKLTVLG", "%", 9],
  ["IDT5 (Fab, V domains shown, Fab; also called anti-NOV1401 Fab IDT5) VH: QVQLVESGGGLVKPGGSLRLSCAASGFTFSSAAVHWVRQAPGKGLEWVGRIKSKADAGTTDYAAPVKGRFTISRDDSKNTLYLQMNSLKTEDTAVYYCARDSPSISSYSIPYFSGMDVWGQGTLVTVSS VL: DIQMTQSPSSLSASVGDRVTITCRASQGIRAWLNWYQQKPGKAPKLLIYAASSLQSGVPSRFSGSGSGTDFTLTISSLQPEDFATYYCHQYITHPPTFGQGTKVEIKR", "%", 17],
  ["IDT2 (Fab, V domains shown, Fab; also called anti-NOV1401 Fab IDT2) VH: QVQLVESGGGLVKPGGSLRLSCAASGFTFSSAAVHWVRQAPGKGLEWVGRIKSKADGGTTDYAAPVKGRFTISRDDSKNTLYLQMNSLKTEDTAVYYCARDSPSISSYSIPYFSGMDVWGQGTLVTVSS VL: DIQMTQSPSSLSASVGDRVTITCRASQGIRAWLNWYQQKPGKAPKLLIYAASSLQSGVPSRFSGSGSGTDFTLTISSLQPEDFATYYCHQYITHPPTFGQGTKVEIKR", "%", 21],
  ["IDT12 (antibody, human IgG1, kappa, V domains shown, also called anti-NOV1401 IgG IDT12; full length IgG format for IDT2) VH: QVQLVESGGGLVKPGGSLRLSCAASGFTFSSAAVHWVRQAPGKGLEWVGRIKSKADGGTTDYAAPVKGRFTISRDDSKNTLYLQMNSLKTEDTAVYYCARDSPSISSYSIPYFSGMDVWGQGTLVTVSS VL: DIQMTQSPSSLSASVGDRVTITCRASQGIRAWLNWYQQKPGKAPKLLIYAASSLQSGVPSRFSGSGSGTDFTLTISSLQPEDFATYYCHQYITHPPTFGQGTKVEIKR", "%", 9],
  ["IDT1 (Fab, V domains shown, Fab (heavy chain is VH-CH1); also called anti-NOV1401 Fab IDT1) VH: QVQLLESGGGLVQPGGSLRLSCAASGFTFSDYAMSWVRQAPGKGLEWVSVIDYSSSNTYYADSVKGRFTISRDNSKNTLYLQMNSLRAEDTAVYYCAREGYSYRSIRFDYWGQGTLVTVSS VL: DIQMTQSPSSLSASVGDRVTITCRASQSISSNLNWYQQKPGKAPKLLIYAASNLQSGVPSRFSGSGSGTDFTLTISSLQPEDFATYYCLQFDHTPFTFGQGTKVEIKR", "%", 12]
]}

Prompt: For the binder IDT11 (antibody, human IgG1, kappa, V domains shown, also called anti-NOV1401 IgG IDT11; full length IgG format for IDT1) VH: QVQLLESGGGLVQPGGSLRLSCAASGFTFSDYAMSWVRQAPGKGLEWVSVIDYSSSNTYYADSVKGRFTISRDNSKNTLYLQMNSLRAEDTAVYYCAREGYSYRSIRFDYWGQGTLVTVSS VL: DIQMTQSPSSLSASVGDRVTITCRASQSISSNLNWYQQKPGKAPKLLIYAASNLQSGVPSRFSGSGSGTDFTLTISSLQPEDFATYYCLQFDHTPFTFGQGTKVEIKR , what aPTT percentage reversal, NOV1401/anti NOV1401 ratio 1/1 (n/n) is on record?
Response: 19

Prompt: Another binder to look at: IDT8 (Fab, V domains shown, Fab; also called anti-NOV1401 Fab IDT8) VH: QVQLVESGGGLVKPGGSLRLSCAASGFTFSSNAMHWVRQAPGKGLEWVGRIKSKTSGGTTDYAAPVKGRFTISRDDSKNTLYLQMNSLKTEDTAVYYCARDHYYYPFAYWGQGTLVTVSS VL: DIQMTQSPSSLSASVGDRVTITCRASQSIRYNLAWYQQKPGKAPKLLIYAASSLQSGVPSRFSGSGSGTDFTLTISSLQPEDFATYYCHQYIAKPITFGQGTKVEIKR
Response: 8

Prompt: Another binder to look at: IDT7 (Fab, V domains shown, Fab; also called anti-NOV1401 Fab IDT7) VH: QVQLVESGGGLVKPGGSLRLSCAASGFTFSSNAMHWVRQAPGKGLEWVGRIKSKTDGGTTDYAAPVKGRFTISRDDSKNTLYLQMNSLKTEDTAVYYCARDHYYYPFAYWGQGTLVTVSS VL: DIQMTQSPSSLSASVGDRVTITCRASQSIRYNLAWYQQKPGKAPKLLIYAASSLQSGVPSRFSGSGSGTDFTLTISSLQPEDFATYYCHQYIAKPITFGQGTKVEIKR
Response: 16
